Tested on: HCT-116 colon
Assay: NCI tumour cell line growth inhibition, 48 h
QUANTITY_KIND: TGI

Known results for compounds:
1) Cc1[nH]c(=O)nc2nc3ccc(Cl)cc3c(NCCNCCO)c12	18.5 µM
2) CC(=O)Nc1ccc(S(=O)(=O)N2C(=O)CCC2C(=O)Nc2ccc(Br)cc2)cc1 (stereo unspecified)	> 100 µM
3) COc1cccc(C(=O)Oc2ccc(OS(=O)(=O)c3ccc(C)cc3)cc2)c1C#N	> 100 µM
4) Cc1cn2c(=O)c3ncn(C4OC(CO)C(O)C4O)c3n(C)c2n1 (stereo unspecified)	> 100 µM
5) O=c1[nH]nnc2c1sc1ncccc12	> 100 µM

Inquiry: Fill blank: measured TGI of the compound `Cc1cc(Cl)cc(OCCn2cc(F)cn2)c1-c1nc(N)nc2c1CN(C(=O)NCC(C)(F)F)C2` is ____.
Reply text: > 100 µM

Inquiry: Same thing, different compound: `NC(=S)N/N=C/C(=O)O`
Reply text: > 100 µM

Inquiry: Same thing, different compound: `O=c1cc[nH]c(=O)[nH]1`
Reply text: > 821 µM

Inquiry: Same thing, different compound: `O=C(Nc1ccc2ncccc2c1)Nc1ccc2ncccc2c1`
Reply text: > 100 µM

Inquiry: Same thing, different compound: `CCn1c(-c2ccccc2)cs/c1=N\C(P(=O)(O)O)P(=O)(O)O`
Reply text: > 100 µM

Inquiry: Same thing, different compound: `O=C(/C=C/c1ccccc1)CCC1C(=O)c2ccccc2C1=O`
Reply text: > 100 µM

====

# TGI values compiled below
Tested on: M14 melanoma
Experiment: NCI tumour cell line growth inhibition, 48 h

1. CO/N=C(/C)c1cccc(Nc2cc(-n3nnc4ccccc43)nc3ccccc23)c1	> 100 µM

Inquiry: Fill blank: measured TGI of the molecule `COc1cc(Nc2ncccc2C(=O)NCc2cn(Cc3cccc(Oc4ccccc4)c3)nn2)cc(OC)c1` is ____.
Reply text: > 100 µM

Inquiry: Same thing, different molecule: O=[N+]([O-])C[C@@]12O[C@]3(O)C4C5CC(C6C5C3C61)C42 (some centres not stated)
Reply text: > 100 µM

Inquiry: Same thing, different molecule: COC(=O)C(C(=O)c1ccccc1)C(C(=O)C(=O)Nc1ccc(OC)cc1OC)C(=O)C(=O)c1ccc(C)cc1 (configuration not stated)
Reply text: > 100 µM

Inquiry: Same thing, different molecule: `CCCCC#CC1=C(Br)C(=O)OC1`
Reply text: 3.71 µM

Inquiry: Same thing, different molecule: `CC[As](CC)SC[C@H](C)C(=O)N1CCC[C@H]1C(=O)O`
Reply text: 0.0895 µM

Inquiry: Same thing, different molecule: CC(C)C(CCl)NC(=O)c1cccc(C(=O)N[C@H](CCl)C(C)C)n1 (stereo in doubt)
Reply text: > 100 µM

Inquiry: Same thing, different molecule: `Brc1ccc2[nH]cc(-c3csc(-c4c[nH]c5ccccc45)n3)c2c1`
Reply text: 5.14 µM

Inquiry: Same thing, different molecule: `Cn1cc(C2=C(c3ccc(N)cc3)C(=O)NC2=O)c2ccccc21`
Reply text: > 25 µM

====

System: SK-MEL-5 melanoma
Experiment: NCI tumour cell line growth inhibition, 48 h; in the data active = GI50 below about 0.43 µM; inactive = the rest
Parameter call: string, one of 1 (active), -1 (inactive)

1. COc1cc(OCc2cccc(-c3ccc(C(O)c4nccs4)cc3)c2C)cc(OC)c1C=O (stereo not drawn)	-1
2. Cn1cc(C2=C(c3ccc(N)cc3)C(=O)NC2=O)c2ccccc21	-1
3. COc1ccccc1/C=N\N/C(N)=N\N=C\c1ccccc1OC	1
4. O=C(O)COc1ccc2c(=O)c3sc4c(=O)c5ccccc5c(=O)c4c3c(=O)c2c1	-1
5. COc1cccc(F)c1C(=O)c1cnc(NC2CCN(S(C)(=O)=O)CC2)nc1N	-1
6. Cc1cc(Cl)cc(OCCn2cc(F)cn2)c1-c1nc(N)nc2c1CN(C(=O)NCC(C)(F)F)C2	1
7. Oc1ccc(Nc2ncnc3c2sc2ncccc23)cc1	1

Inquiry: Outcome? `Nc1nn2cc(F)cnc2c1C(=O)Nc1cncc(F)c1N1CCC(C(=O)N2CCN(C3COC3)CC2)CC1`
Reply text: -1

====

Tested on: HOP-92 NSCLC
Assay: NCI tumour cell line growth inhibition, 48 h
# TGI values compiled below

Known results for molecules:
1. CC12C/C(=C\c3ccccc3)C(=O)C3C1CCCC32	> 100 µM
2. O=C(O)CCCc1nc2c(n1Cc1ccccc1)C(=O)c1ccccc1C2=O	> 100 µM
3. CO/N=C(/C)c1cccc(Nc2cc(-n3nnc4ccccc43)nc3ccccc23)c1	37.4 µM
4. O=C1CCC(Cl)=CC2CCCN12 (stereo unspecified)	> 100 µM
5. CN(C)c1ccc(/C=c2/c3ccccc3n3c2c2c([n+]3C)CCCC2)cc1	0.141 µM
6. CC1(C)/C(=N\NC(N)=O)C2CCC1C2 (stereo unspecified)	> 100 µM

Inquiry: Fill blank: measured TGI of the molecule `C[C@H]1[C@H]2[C@H]3CC[C@@H]4[C@@]5(C)CC[C@H](O)C(C)(C)[C@@H]5CC[C@@]4(C)[C@]3(C)C[C@H](O)[C@@]2(C)C[C@H]2O[C@]21C` is ____.
Reply text: 56.2 µM

Inquiry: Same thing, different molecule: `COc1cccc(CCNC(=O)Cc2ccccc2CCO)c1`
Reply text: > 100 µM

Inquiry: Same thing, different molecule: `CC1(C)CC(=O)C(C=NC(=S)c2ccccc2)=C(O)C1`
Reply text: > 100 µM

Inquiry: Same thing, different molecule: `O=C(/C=C/c1ccccc1)CCC1C(=O)c2ccccc2C1=O`
Reply text: > 100 µM

Inquiry: Same thing, different molecule: `O=C1Nc2cccc(Cl)c2/C1=C\c1c(Cl)nc2n1CCS2`
Reply text: > 100 µM

====

Test system: HOP-62 NSCLC
Experiment: NCI tumour cell line growth inhibition, 48 h
# TGI values compiled below
Return type: number; implicit unit µM.

Known results for compounds:
1. C#CCOc1cccc(-c2ncc3cc(NC(=O)CCl)ccc3n2)c1	3.81
2. S=C(Nc1ccc(Cl)cc1)Nc1ccc(-c2nc3ccccc3s2)cc1	41

Inquiry: Fill blank: measured TGI of the compound `CNCc1ccccc1-c1csc([C@@H](C)Nc2nc(C)nc3cc(OC)c(OC)cc23)c1` is ____.
Reply text: 12.3

Inquiry: Same thing, different compound: `COc1ccc(/C=C\[N+](=O)[O-])cc1OC`
Reply text: 29.2

Inquiry: Same thing, different compound: `Cc1ccnc2[nH]c(-c3ccc4ccccc4c3)cc(=O)c12`
Reply text: 12.6

Inquiry: Same thing, different compound: `CO/N=C(/C)c1cccc(Nc2cc(-n3nnc4ccccc43)nc3ccccc23)c1`
Reply text: 53.6

====

# TGI values compiled below
Test system: A549 NSCLC
Experiment: NCI tumour cell line growth inhibition, 48 h
Return type: number; implicit unit µM.

1. CO/N=C(\C)c1ccc(Nc2nc3ccccc3c3occc23)cc1	39
2. CNCc1ccccc1-c1csc([C@@H](C)Nc2nc(C)nc3cc(OC)c(OC)cc23)c1	5.73
3. CCCCC#CC1=C(Br)C(=O)OC1	43.4

Note: attention shifts to another entry.
Inquiry: Fill blank: measured TGI of the compound `NC(N)=N/N=C/c1c(-c2ccsc2)nc2sccn12` is ____.
Reply text: 43.7

====

# TGI values compiled below
System: PC-3 prostate
Experiment: NCI tumour cell line growth inhibition, 48 h

Known results for compounds:
1. CCOc1ncn(-c2ccc(NC(=S)Nc3ncccn3)cc2)n1	> 100 µM
2. C/C=C/C(CC(O)(C(F)(F)F)C(F)(F)F)=N/NC(N)=S	> 10 µM
3. COc1ccc(OC)c2c1[nH]c(=O)c1c3ccccc3cn21	4.21 µM

Inquiry: Fill blank: measured TGI of the compound COC(=O)C1=C(OC(=O)/C(=C/c2ccc(Cl)cc2)c2ccc(Cl)cc2)C(C(=O)OC)[C@@]2(O)[C@@H](C(=O)OC)[C@H](C)C[C@@H]1[C@@H]2C(=O)OC (stereo partly specified) is ____.
Reply text: > 100 µM

Inquiry: Same thing, different compound: CC1(C)C(C#N)C1C1=C(N2CCOCC2)[C@]2(C)C(OC(=O)c3ccccc3)CC[C@@H]2C1 (stereo partly specified)
Reply text: > 100 µM

Inquiry: Same thing, different compound: `Cc1n(Cc2ccccc2)c2c([n+]1C)C(=O)c1ccccc1C2=O`
Reply text: 0.999 µM

====

Tested on: SNB-78 CNS
Assay: NCI tumour cell line growth inhibition, 48 h
QUANTITY_KIND: TGI

Known results for compounds:
1. CCC(=O)CC(=O)CCC(=O)Nc1cc(C)ccc1C	> 100 µM
2. O=c1/c(=C/c2ccccc2[N+](=O)[O-])sc2nnc(-c3ccco3)n12	72.3 µM
3. O=c1cc[nH]c(=O)[nH]1	> 1000 µM
4. O=C(CCN(C(=O)O)S(=O)(=O)c1ccc(NC(=O)c2ccccc2)cc1)Nc1ccccc1	> 100 µM
5. CN(C)CCNC(=O)c1cccc2ccc(-c3ccc(O)cc3)nc12	20.3 µM

Inquiry: Fill blank: measured TGI of the compound O=C1CCC(Cl)=CC2CCCN12 (configuration not stated) is ____.
Reply text: > 100 µM

Inquiry: Same thing, different compound: CC(C)C(CCl)NC(=O)c1cccc(C(=O)N[C@H](CCl)C(C)C)n1 (stereo in doubt)
Reply text: > 100 µM
